# SYSTEM_NAME: HDAC2 (Homo sapiens)
# Construct: purchased Reaction Biology Corporation (assay run by the CRO)
# Sequence (Q92769 whole entry): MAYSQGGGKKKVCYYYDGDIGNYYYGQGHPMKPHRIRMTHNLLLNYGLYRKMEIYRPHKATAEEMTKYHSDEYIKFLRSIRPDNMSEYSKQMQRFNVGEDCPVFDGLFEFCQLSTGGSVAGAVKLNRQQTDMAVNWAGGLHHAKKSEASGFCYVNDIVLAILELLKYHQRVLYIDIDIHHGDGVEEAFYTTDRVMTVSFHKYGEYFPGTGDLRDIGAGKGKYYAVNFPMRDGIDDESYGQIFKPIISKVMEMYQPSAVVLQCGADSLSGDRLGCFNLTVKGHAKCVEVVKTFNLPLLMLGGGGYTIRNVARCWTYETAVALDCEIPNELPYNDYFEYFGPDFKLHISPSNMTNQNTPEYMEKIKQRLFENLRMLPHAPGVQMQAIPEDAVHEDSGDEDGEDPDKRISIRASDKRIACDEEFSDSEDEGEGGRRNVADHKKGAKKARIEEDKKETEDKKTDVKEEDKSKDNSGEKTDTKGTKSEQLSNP
# ASSAY_COMMENT: HDAC2 inhibition, full IC50 measurement (Reaction Biology; fluorogenic p53 peptide RHKK(Ac)AMC)
# Type: biochemical
# MEASUREMENT_CONDITIONS: Conc. 3.33E-06 M, t1
Peptide text beside a SMILES is read from it.
Please go through the items and note down their HDAC2 activity raw data (signal).
One number for each entry.

>>> measured_value("NCCCC[C@@H]1NC(=O)[C@@H]2C[C@@H](O)CN2C(=O)[C@H](CC(N)=O)NC(=O)[C@H](CCCCCS)NC(=O)CNC(=O)[C@H](Cc2c[nH]c3ccccc23)NC(=O)[C@@H](CCCCN)NC(=O)[C@H](CCC(N)=O)NC1=O [des1.1.2, SHA-Asn-Hpr-Lys-Gln-dLys-Trp-Gly] (HELM PEPTIDE1{G.[O=C([C@H](CCCCCS)N[*:1])[*:2]].N.[Hyp].K.Q.[dK].W}$PEPTIDE1,PEPTIDE1,1:R1-8:R2$$$V2.0)")
281419
>>> measured_value("N=C(N)NCCC[C@H]1NC(=O)[C@@H]2CCCN2C(=O)[C@H](CO)NC(=O)[C@@H](Cc2c[nH]cn2)NC(=O)[C@H](CCCCCS)NC(=O)[C@H](CCCCN)NC(=O)[C@H](Cc2ccc(O)cc2)NC(=O)[C@H]2CCCN2C(=O)[C@@H](CCC(N)=O)NC1=O [des3.1.0, SHA-dHis-Ser-Pro-dArg-dGln-dPro-Tyr-Lys] (HELM PEPTIDE1{K.[O=C([C@H](CCCCCS)N[*:1])[*:2]].[dH].S.P.[dR].[dQ].[dP].Y}$PEPTIDE1,PEPTIDE1,1:R1-9:R2$$$V2.0)")
217345
>>> measured_value("CSCC[C@H]1NC(=O)[C@@H](CO)NC(=O)[C@H](CC(N)=O)NC(=O)[C@H](CC(=O)O)NC(=O)[C@@H]([C@H](C)O)NC(=O)[C@H](Cc2c[nH]c3ccccc23)NC(=O)[C@H](CCCCCS)NC(=O)[C@H](CCCCN)NC(=O)[C@@H](CC(=O)O)NC1=O [des2.1.1, SHA-Trp-dThr-Asp-Asn-dSer-dMet-dAsp-Lys] (HELM PEPTIDE1{D.N.[dS].[dM].[dD].K.[O=C([C@H](CCCCCS)N[*:1])[*:2]].W.[dT]}$PEPTIDE1,PEPTIDE1,1:R1-9:R2$$$V2.0)")
19780

Exercise: Could you share what HDAC2 activity raw data (signal) was measured for CCCC[C@H]1NC(=O)[C@H](Cc2ccccc2)NC(=O)[C@H](CCCCCS)NC(=O)[C@@H](CCCNC(=N)N)NC(=O)[C@H](CC(=O)O)NC(=O)[C@@H](CO)NC(=O)[C@@H](C)NC(=O)[C@H](CCCCN)NC1=O [des4.3.1, SHA-Phe-dNle-Lys-dAla-dSer-Asp-dArg] (HELM PEPTIDE1{D.[dR].[O=C([C@H](CCCCCS)N[*:1])[*:2]].F.[CCCC[C@@H](N[*:1])C(=O)[*:2]].K.[dA].[dS]}$PEPTIDE1,PEPTIDE1,1:R1-8:R2$$$V2.0) , tested on HDAC2 (Homo sapiens)?
Solution: 321418
